Target: T1, recombinant human PD-1 dimer expressed with a C-terminal mouse IgG2a Fc tag (human)
T1 construct: also called hPD-1-mFc
T1 sequence (chain, as listed by the source limits assumed): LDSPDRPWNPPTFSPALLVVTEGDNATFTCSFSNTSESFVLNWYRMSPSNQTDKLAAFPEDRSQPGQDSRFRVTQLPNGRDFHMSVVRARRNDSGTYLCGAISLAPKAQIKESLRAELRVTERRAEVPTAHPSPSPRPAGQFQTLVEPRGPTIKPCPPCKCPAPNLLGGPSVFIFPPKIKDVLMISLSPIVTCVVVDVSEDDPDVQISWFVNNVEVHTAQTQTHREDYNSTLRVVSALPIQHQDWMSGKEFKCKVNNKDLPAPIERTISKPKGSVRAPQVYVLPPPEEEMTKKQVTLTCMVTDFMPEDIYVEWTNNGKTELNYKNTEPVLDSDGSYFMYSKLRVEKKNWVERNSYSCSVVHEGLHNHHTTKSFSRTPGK
Experiment: competition ELISA: 1.5 nM hPD-1-mFc to coated hPD-L1-hFc
QUANTITY NAME: % blocking at 200 nM antibody (%)
Write the number in % without appending the unit.

Per the record, H2aM7798N (antibody, V domains shown, human variable regions, mouse IgG2a Fc; also called H2M7798N) VH: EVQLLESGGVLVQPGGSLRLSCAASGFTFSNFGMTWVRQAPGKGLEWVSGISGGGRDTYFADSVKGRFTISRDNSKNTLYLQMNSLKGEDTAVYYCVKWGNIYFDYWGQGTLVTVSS VL: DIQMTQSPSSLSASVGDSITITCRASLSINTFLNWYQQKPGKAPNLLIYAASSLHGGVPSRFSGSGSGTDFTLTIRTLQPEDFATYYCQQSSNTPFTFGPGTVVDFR has % blocking at 200 nM antibody of 93
